# test: Cell viability assay (CellTiter-Glo), cytotoxicity
# measurement-context: African green monkey, Vero E6 cells (non-infected), CC50, non-infected Vero E6 cells, mean of three experiments
Where a name gives a salt, the structure may show the parent alone.
measured-property: CC50 at 72 h (µM)
A number alone suffices; assume µM.

stdin: Need CC50 at 72 h, item CCN(CCO)CCCC(C)Nc1ccnc2cc(Cl)ccc12 (stereo not shown) [compound 1, hydroxychloroquine sulfate, reference compound]
stdout: 214

---

measured-property: CC50

stdin: # value lookup — system Vero E6 cells, readout CC50, item Cc1ccc(S(=O)(=O)[O-])cc1.[Na+] [7a]
stdout: > 400 µM

stdin: # value lookup — system Vero E6 cells, readout CC50, item CCCCCCS(=O)(=O)O [4a]
stdout: > 400 µM

stdin: # value lookup — system Vero E6 cells, readout CC50, item O=C([O-])[C@H](O)[C@@H](O)[C@H](O)[C@H](O)CO.[Na+] [9a]
stdout: > 400 µM

stdin: # value lookup — system Vero E6 cells, readout CC50, item CC1(C)C2CC[C@@]1(CS(=O)(=O)[O-])C(=O)C2.[Na+] [6a]
stdout: 142 µM

stdin: # value lookup — system Vero E6 cells, readout CC50, item CS(=O)(=O)[O-].[K+] [3a, potassium methanesulfonate]
stdout: > 400 µM

---

# test: Octanol–water partition coefficient (Kow, Log P) by UV–Vis
# measurement-context: logarithm of Kow, ca. 1 mg/mL, triplicate
Counter-ions that a name gives are not always drawn.
Record form. Attribute: Log P. Fill in for each entry.
Keep the answer to the number alone.

stdin: Need Log P, item CCN(CCO)CCCC(C)Nc1ccnc2cc(Cl)ccc12.O=C(O)[C@@H](O)[C@H](O)[C@@H](O)[C@@H](O)CO.O=C(O)[C@@H](O)[C@H](O)[C@@H](O)[C@@H](O)CO (stereo not shown)
stdout: −1.39

stdin: Need Log P, item CC1(C)C2CC[C@@]1(CS(=O)(=O)O)C(=O)C2.CC1(C)C2CC[C@@]1(CS(=O)(=O)O)C(=O)C2.CCN(CCO)CCCC(C)Nc1ccnc2cc(Cl)ccc12 (stereo not shown)
stdout: −1.16

stdin: Need Log P, item CCCCCCCCCCCCS(=O)(=O)O.CCCCCCCCCCCCS(=O)(=O)O.CCN(CCO)CCCC(C)Nc1ccnc2cc(Cl)ccc12 (stereo not shown)
stdout: 1.01

stdin: Need Log P, item CCN(CCO)CCCC(C)Nc1ccnc2cc(Cl)ccc12.Cc1ccc(S(=O)(=O)O)cc1.Cc1ccc(S(=O)(=O)O)cc1 (stereo not shown)
stdout: −1.12

stdin: Need Log P, item CCCCC(CC)COC(=O)CC(C(=O)OCC(CC)CCCC)S(=O)(=O)O.CCCCC(CC)COC(=O)CC(C(=O)OCC(CC)CCCC)S(=O)(=O)O.CCN(CCO)CCCC(C)Nc1ccnc2cc(Cl)ccc12 (stereo not shown)
stdout: 1.24

stdin: Need Log P, item CCN(CCO)CCCC(C)Nc1ccnc2cc(Cl)ccc12 (stereo not shown) [compound 1, hydroxychloroquine sulfate, reference compound]
stdout: −2.25

stdin: Need Log P, item CCN(CCO)CCCC(C)Nc1ccnc2cc(Cl)ccc12.CS(=O)(=O)O.CS(=O)(=O)O (stereo not shown)
stdout: −0.22

---

Record form. Attribute: Water Solubility. Fill in for each entry.
# test: Water solubility by stepwise addition of water until visual dissolution
# measurement-context: double-distilled water, 37 °C, visual inspection
A number alone suffices; assume mg/mL.

stdin: Need Water Solubility, item CC1(C)C2CC[C@@]1(CS(=O)(=O)O)C(=O)C2.CC1(C)C2CC[C@@]1(CS(=O)(=O)O)C(=O)C2.CCN(CCO)CCCC(C)Nc1ccnc2cc(Cl)ccc12 (stereo not shown)
stdout: 2020

stdin: Need Water Solubility, item CCN(CCO)CCCC(C)Nc1ccnc2cc(Cl)ccc12.O=C(O)[C@@H](O)[C@H](O)[C@@H](O)[C@@H](O)CO.O=C(O)[C@@H](O)[C@H](O)[C@@H](O)[C@@H](O)CO (stereo not shown)
stdout: 1230

---

# test: Water solubility by stepwise addition of water until visual dissolution
# measurement-context: double-distilled water, 37 °C, water, thermodynamic from solid
measured-property: solubility (mg/mL)
A number alone suffices; assume mg/mL.

stdin: Need solubility, item CCN(CCO)CCCC(C)Nc1ccnc2cc(Cl)ccc12.CS(=O)(=O)O.CS(=O)(=O)O (centres unmarked)
stdout: 1800

stdin: Need solubility, item CCN(CCO)CCCC(C)Nc1ccnc2cc(Cl)ccc12.Cc1ccc(S(=O)(=O)O)cc1.Cc1ccc(S(=O)(=O)O)cc1 (centres unmarked)
stdout: 1400

---

Record form. Attribute: CC50. Fill in for each entry.
# Tested on: Vero E6 cells
# test: Cell viability assay (CellTiter-Glo), cytotoxicity
# measurement-context: non-infected Vero E6 cells, 72 h, mean of three experiments
A number alone suffices; assume µM.

stdin: Need CC50, item CCN(CCO)CCCC(C)Nc1ccnc2cc(Cl)ccc12.Cc1ccc(S(=O)(=O)O)cc1.Cc1ccc(S(=O)(=O)O)cc1 (centres unmarked)
stdout: 207

stdin: Need CC50, item CCN(CCO)CCCC(C)Nc1ccnc2cc(Cl)ccc12.CS(=O)(=O)O.CS(=O)(=O)O (centres unmarked)
stdout: 219

stdin: Need CC50, item CCCCC(CC)COC(=O)CC(C(=O)OCC(CC)CCCC)S(=O)(=O)O.CCCCC(CC)COC(=O)CC(C(=O)OCC(CC)CCCC)S(=O)(=O)O.CCN(CCO)CCCC(C)Nc1ccnc2cc(Cl)ccc12 (centres unmarked)
stdout: 69.8

stdin: Need CC50, item CCN(CCO)CCCC(C)Nc1ccnc2cc(Cl)ccc12.O=C(O)[C@@H](O)[C@H](O)[C@@H](O)[C@@H](O)CO.O=C(O)[C@@H](O)[C@H](O)[C@@H](O)[C@@H](O)CO (centres unmarked)
stdout: 196

stdin: Need CC50, item CCN(CCO)CCC[C@H](C)Nc1ccnc2cc(Cl)ccc12
stdout: 73.2

---

# test: Critical micelle concentration by ionic conductivity
# Assay type: physicochemical
# measurement-context: 20 °C, water
Record form. Attribute: cmc. Fill in for each entry.
Param answer (str): number followed by unit.

stdin: Need cmc, item CCCCCCCCCCCCS(=O)(=O)O.CCCCCCCCCCCCS(=O)(=O)O.CCN(CCO)CCCC(C)Nc1ccnc2cc(Cl)ccc12 (stereo not shown)
stdout: 4.83 µM

stdin: Need cmc, item CCCCCCCCCCCCOS(=O)(=O)[O-].[Na+] [8a, reference compound]
stdout: 9600 µM

stdin: Need cmc, item CCCCC(CC)COC(=O)CC(C(=O)OCC(CC)CCCC)S(=O)(=O)O.CCCCC(CC)COC(=O)CC(C(=O)OCC(CC)CCCC)S(=O)(=O)O.CCN(CCO)CCCC(C)Nc1ccnc2cc(Cl)ccc12 (stereo not shown)
stdout: 1.79 µM

stdin: Need cmc, item CCCCC(CC)COC(=O)CC(C(=O)OCC(CC)CCCC)S(=O)(=O)[O-].[Na+] (stereo not shown)
stdout: 1540 µM
